System: G-clamp-N3 (biotin conjugate)
experimental_protocol: pull-down binding Z-score (relative to library population); higher = stronger binding
condition: RNA library: Library-1 (pre-miRNA loops + repeats)
Reported pull-down binding Z-score values for the following sequences.
endpoint_label: pull-down binding Z-score

1. ACGAUAUAUAUACUGCCCUGCUUUUAUACAUACAUACAUACAUACCUAUAUCGU [hsa-mir-4536-1]	-0.956
2. UGGCAAAGGGGUAGCUAAACAAUCUAUGUCUUUGCCA [hsa-mir-3119-1]	1.24
3. GGGAGCGGCCCUCACAUUGAUGGCUCCU [hsa-mir-6727]	1.42
4. AUGUCCCUUUAGUUCAAAGU [hsa-mir-2052]	-2.06
5. GGUUGUUUAAUUAGGAACCAACU [hsa-mir-190b]	-0.019
6. GCAGAGCAGGACGCCGCUGCUGC [hsa-mir-8072]	-0.0779
7. AAGCCCUACGAGAAACUGGGGUUUCUGGA [hsa-mir-765]	-1.01
8. GUCUGGCAUUGUCUGAUAUAC [hsa-mir-1294]	0.671
9. UGGACCUCAGGGAAGAGGCUG [hsa-mir-4673]	0.343
10. AGGGCAGCUCCCAUGACUGCCUGACCGC [hsa-mir-6880]	-0.549
11. CGGUGUGCAAAUGUGUGUGUGCGGUGUUAUGCCG [hsa-mir-4442]	-0.0251
12. GGCCACCCAGGGAGUAAGUAGCC [hsa-mir-4480]	0.515
13. UUUUCUGGGA [hsa-mir-4456]	-0.606
14. CGAGGUGG [hsa-mir-4302]	-0.91
15. GGACCAGCCCAAAGGCCAGGCCUGACCC [hsa-mir-4780]	-0.253
16. UCCCAUUUCCACAUGGAGAGUGGAGCCCAGA [hsa-mir-3123]	1.02
17. GAUUGGUUAGCCUAAGACUUGUUCUGAUCCAAUC [hsa-mir-5701-1_5701-2_5701-3]	-0.75
18. CGCUGAUGUGCAUUCAACUCAUUCUCAGCA [hsa-mir-1468]	-1.2
19. CUGAGAGGUUUACAUUUCUC [hsa-mir-128-1]	-1.07
20. GCGGCUGUUAAUGAUUUUAACAGUUGC [hsa-mir-449c]	0.888
21. CUGGGAGGUGUGAUAUCGUGGUUCCUGG [hsa-mir-3689c]	0.718
22. UUUUGCCAUUAAAAGUAAUGACAAAA [hsa-mir-548f-4]	-0.841
23. GCAUCCUUGGAAUCUGCACUCAAGGGAUGC [hsa-mir-5089]	0.605

###

Test system: TO-3-N3 (biotin conjugate)
experimental_protocol: pull-down binding Z-score (relative to library population); higher = stronger binding
condition: RNA library: Library-2
endpoint_label: pull-down binding Z-score

1) AGAGAUGAGCAUAAAGUUUUU [hsa-mir-6086]	0.0616
2) CAGUUGAAACAUCAAAUUCGUUUGAUGUACUG	-0.685
3) GCCUUGUGGCAUGGAGUUCAAGC [hsa-mir-107]	0.468
4) AACAGCUUUGCGAAGUGUUGUU [hsa-mir-4425]	0.104
5) UGUACGCUUUAUUUGUGACGUAGG [hsa-mir-1197]	-0.438
6) CAUGAUUUGGAAAAAUUACUG [hsa-mir-6128]	-0.174
7) ACAGCCAGUGCUCUCGUCUCCCCUCUGGCUGC [hsa-mir-192]	0.839
8) ACACGGUGUUUAAACCGUGU	0.59
9) CGGUGUGCAAAUGUGUGUGUGCGGUGUUAUGCCG [hsa-mir-4442]	-0.732
10) AAAUCCGUGUUUGGACGCUUCUGGUA [hsa-mir-3936]	0.678
11) GGCUAUGUAACACAUGGCU	-0.114
12) GAGAGAGUGCACAGCCAGCUCAGGGAUUAAAGCUCUUUCUCUCUCUCUC [hsa-mir-7110]	-0.181

###

System: TO-3-N3 (biotin conjugate)
experimental_protocol: pull-down binding Z-score (relative to library population); higher = stronger binding
condition: RNA library: Library-2
Classification field. Basis: pull-down binding Z-score. Definitions: label 0 = under -0.5, label 1 = from -0.5 up to 0.03, label 2 = 0.03 and over

1. CCGUUUAAAAAGGCAUCUCCAAG [hsa-mir-608]	label 2
2. ACACCUGUAAAGAAUUGGUCAGCCUGGGGACUGGUGAUCUCUGCAGCUGU [hsa-mir-4265]	label 2
3. ACCUAAAUAGAGGU	label 0
4. ACACUGGGCUGCCCCCACUGCCCAGUGC [hsa-mir-4277]	label 2
5. UGGAGGUGAUGGGGGCAGGGGAUGGGUCUCACCCUCCC [hsa-mir-5088]	label 2
6. GUCAGGAGUGGCUUUCCUGAC [hsa-mir-4462]	label 2
7. CCAUGCAACAUUUGG [hsa-mir-1302-4]	label 1
8. CAUUAACGUGGACCAGACAAUAUUAAUG [hsa-mir-4491]	label 1
9. CUGCCCCUCGAAUCUGCUCCACGAUUUGGGCAG [hsa-mir-4436a]	label 2
10. GCUCUGGGGAUUUGGUCUCACAGC [hsa-mir-3940]	label 0
11. GCGGUUUUUGCUAUUGGUUUUAAUGGC [hsa-mir-548au]	label 1
12. UAAAGUACUUAAUGAGAAGUGCUCUGCCUAUACAGUUGAACUCGGUACAGAAGUAAAUGAGUUCGCCUGUGUUGUGGCAGAUGCUGUCAUAAAAACUUUG [DMSMaPseq_invitro_SARS-CoV-2_Motif_52]	label 1
13. UGUAAGCACAAGCUGAUGAGUACGAACUUAUGUACUCAUUCGUUUCGGAAGAGACAGGUACGUUAAUAGUUAAUAGCGUACUUCUUUUUCUUGCUUUCG [DMSMaPseq_invitro_SARS-CoV-2_Multi_80_ComplexLevel_1]	label 0
14. UUUUCGCUUUAUAUGUGACGAAAC [hsa-mir-495]	label 0
15. AGUAGCUGGGAAUACAGGUGUGUGCCACCAUGCCUCUACAAGCUACC [hsa-mir-7851]	label 1
16. GGUUUAUACCUUCCCAGGUAACAAACC	label 0
17. UAUGUCUGAAGCAAAAUGUUGGACUGAGACUGACCUUACUAAAGGACCUCAUGAAUUUUGCUCUCAACAUA	label 1
18. ACCUAACACACUGCCUUUUAUGUGGUAGGU [hsa-mir-5094]	label 0
19. GGGAGUCUUCGAGCUCUC [IAV_invivo_NP_5_Motif_24+IAV_invivo_NP_5_Motif_24]	label 1

###

Tested on: G-clamp-N3 (biotin conjugate)
experimental_protocol: pull-down binding Z-score (relative to library population); higher = stronger binding
condition: RNA library: Library-1 (pre-miRNA loops + repeats)
# pull-down binding Z-score values compiled below
endpoint_label: pull-down binding Z-score

1. GGGUUCAAUAGAUUGCUUUAGCUGAAGCAAGCCU [hsa-mir-8054]	-0.803
2. AGGCAUUAGGAUCCUUAUUCUUGCCU [hsa-mir-4788]	-0.175
3. GCGGGAGCCAGGCCGC [hsa-mir-3185]	3.26
4. UGGCUGUAGGGCAGCAGUCA [hsa-mir-8079]	0.959
5. AGAUAUAUAUAUACCUCAUAUGUAUAUGGUAUAC [hsa-mir-4777]	-1.5
6. UUCUAGUCCCUAUUAGACUAGAA [hsa-mir-5681a]	-0.692
7. GUGGAGGGUGGUGCCGCCGGGGCCGGGCGCUGUUUCAGCUCGCUUCUCCCCCCAC [hsa-mir-1224]	0.608
8. GGUGGGCCUCUGCUCUGGCCCCUCC [hsa-mir-1343]	0.11
9. GCUGAACCCCUGCCCCUGGAGCCCCCAGCAGGGCCCUC [hsa-mir-7162]	-1.32
10. UCCUCCAUGCUUGGAAAAUGCAGGGAGGA [hsa-mir-764]	0.669
11. GUGUCUGGAGACGCCAGGCAGC [hsa-mir-4323]	-0.529

###

System: TO-N3 (biotin conjugate)
experimental_protocol: pull-down binding Z-score (relative to library population); higher = stronger binding
condition: RNA library: Library-2
endpoint_label: pull-down binding Z-score

1) CCUCCCCCAGUGCCAGG [hsa-mir-3196]	-0.106
2) GUAUGAGUGCCACAGAGCCGUCAUAA [hsa-mir-9-3]	1.39
3) CACUUAUCUUAGCCUACUGUAAUAAGACAGUAGGUGAGUUAGGUG	-1.2
4) UGAGCAGGGUCCACACCAAGUCGUGUUCA [hsa-mir-27a]	1.14
5) ACAUCUCUGGCAUUAAUGCUUCAGUUGU [SHAPE_invivo_SARS-CoV-2_Motif_471]	-1.33
6) GCUGGUCUGACUCACAUGAUGAUCUGGC [IAV_invivo_NP_5_Motif_8+IAV_invivo_NP_5_Motif_8]	-0.454
7) UGGAGUCAGUAUUGGUCUGGCCA [hsa-mir-4255]	-0.319
8) CUGCUUUUGGCUUAGUUGCAG	0.125
9) CUCUUGUAAUGUAAACAGAUUUAAUGUUGCUAUUACCAGAG	0.0725
10) CCACAUAGAUCAUCCAAAUCCUAAAGGAUUUUGUGACUUAAAAGG [SHAPE_invivo_SARS-CoV-2_Motif_251]	-0.169

All values here come from the supplement of paper PMC11865577.
